Origin of measurements: ChEMBL document CHEMBL2203134

experiment: Oral bioavailability in rat at 5 mg/kg; format: ADME, organism-based; conditions: in vivo
Outcome label depends on bioavailability relative to 5%: at/above gives Yes, below gives No.

compound | group
CCC(CC)Nc1cc(C(=O)NC2CC3CCC(C2)N3c2ccc(C(C)=O)cn2)c(C)cc1C(N)=O (stereo not given) | No
CC[C@@H](C)Nc1cc(C(=O)NC2CC3CCC(C2)N3c2ccc(C(=O)C3CC3)cn2)c(C)cc1C(N)=O (stereo not given in full) | Yes
COc1cccc(C(=O)NC2CC3CCC(C2)N3c2ccc(C(N)=O)cn2)c1C (stereo not given) | Yes
CCC(CC)Nc1cc(C(=O)NC2CC3CCC(C2)N3c2ccc(C(=O)C3CC3)cn2)ccc1C(N)=O (stereo not given) | Yes
